- system_under_test: human ether-à-go-go-related gene (hERG) potassium channel (human);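 note: peak tail current of the secondary pulse compared with the same well before compound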
- Sequence (Q12809 whole entry, looked up): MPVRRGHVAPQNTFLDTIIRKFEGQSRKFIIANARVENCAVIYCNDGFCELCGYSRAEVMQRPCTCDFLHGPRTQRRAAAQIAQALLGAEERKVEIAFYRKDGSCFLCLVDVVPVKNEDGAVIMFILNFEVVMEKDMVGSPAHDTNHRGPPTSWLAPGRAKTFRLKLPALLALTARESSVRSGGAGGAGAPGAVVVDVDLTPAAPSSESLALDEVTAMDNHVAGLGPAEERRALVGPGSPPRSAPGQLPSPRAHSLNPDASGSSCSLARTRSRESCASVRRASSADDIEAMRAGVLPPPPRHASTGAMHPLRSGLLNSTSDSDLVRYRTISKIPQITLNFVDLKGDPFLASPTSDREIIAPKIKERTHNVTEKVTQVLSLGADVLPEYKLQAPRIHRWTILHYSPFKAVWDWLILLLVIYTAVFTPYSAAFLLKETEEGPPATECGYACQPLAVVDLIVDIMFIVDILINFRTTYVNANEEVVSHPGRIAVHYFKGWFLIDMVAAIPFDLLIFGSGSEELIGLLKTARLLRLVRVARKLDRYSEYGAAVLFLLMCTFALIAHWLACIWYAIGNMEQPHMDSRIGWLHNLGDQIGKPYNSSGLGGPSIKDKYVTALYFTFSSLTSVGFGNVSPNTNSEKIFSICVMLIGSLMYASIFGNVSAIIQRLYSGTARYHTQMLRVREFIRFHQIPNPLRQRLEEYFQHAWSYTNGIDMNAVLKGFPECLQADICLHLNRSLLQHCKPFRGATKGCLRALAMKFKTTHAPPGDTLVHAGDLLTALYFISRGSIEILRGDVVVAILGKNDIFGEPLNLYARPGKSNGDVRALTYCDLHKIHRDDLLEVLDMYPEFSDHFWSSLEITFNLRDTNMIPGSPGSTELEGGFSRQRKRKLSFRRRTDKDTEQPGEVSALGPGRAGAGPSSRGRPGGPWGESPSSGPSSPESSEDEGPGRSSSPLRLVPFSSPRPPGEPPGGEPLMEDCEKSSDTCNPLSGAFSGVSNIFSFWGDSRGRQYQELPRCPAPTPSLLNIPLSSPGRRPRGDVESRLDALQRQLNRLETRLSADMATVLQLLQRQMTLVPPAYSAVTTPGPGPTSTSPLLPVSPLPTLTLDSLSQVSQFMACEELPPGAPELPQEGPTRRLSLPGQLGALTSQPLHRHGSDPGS
- method_summary: primary screen, population patch clamp on CHO cells stably expressing hERG; higher = less effect of the substance
The whole screen tested about 310,000 compounds, of which about 14,000 (4.5%) showed an effect of 50% or more. The effect is printed as a negative number. This excerpt belongs to a sample that is enriched for strong results.
value_type: hERG current change (%, negative = inhibition) at 10uM (%)
Output spec: scalar in %, unitless text.

Below are worked cases with known answers.
# compound, system_under_test, unit_descriptor, test_value
measured = [
    ("CC(O)C(=O)O.Cc1ccc(CN(CC(O)COc2cccc3[nH]cc(C)c23)C(C)(C)C)cc1 (centres unmarked)", "human ether-à-go-go-related gene (hERG) potassium channel (human)", "%", -60.8),
    ("Cc1oc2cc3c(C(=O)N4CCCCC4)c(C)oc3cc2c1C(=O)N1CCCCC1", "human ether-à-go-go-related gene (hERG) potassium channel (human)", "%", 5.17),
]

Which hERG current change (%, negative = inhibition) at 10uM is reported for this compound? O=C1CCC(=O)N1CCC(c1ccc(F)cc1)c1ccco1 (centres unmarked)
4.27

And then Cc1cccn2c(=O)nc(SCC(=O)NCc3ccco3)nc12 , what is it?
1.37

And then O=C(Nn1cnnc1)c1ccc(Cl)cc1 , what is it?
17.7

And then CCN(CC)C(=O)NC1CC2CCCC(C1)N2Cc1ccccc1 (centres unmarked) , what is it?
-6.25

And then COc1ccccc1CN1C2CCCC1CC(NC(=O)/C=C/c1ccccc1)C2 (centres unmarked) , what is it?
-59.4

And then CC1(C)CC(NCc2ccccc2)CCO1.Cl (centres unmarked) , what is it?
5.1

And then CS(=O)(=O)c1cccc(C(=O)Nc2ccc(-c3nc4ccccc4[nH]3)cc2)c1 , what is it?
11.5

And then CNC(=S)NC1CC2CCCC(C1)N2Cc1ccccc1OC (centres unmarked) , what is it?
-10.1

And then CCCN(CCC)CCCNC(=O)c1cc2cc3ccc(OC)cc3nc2o1 , what is it?
-52.8

And then COc1ccc(OCC(=O)Nc2cccc(-c3nc4ccccc4[nH]3)c2)cc1 , what is it?
-55.9

And then COc1ccc(-n2nc(C(=O)NCc3ccco3)c3ccccc3c2=O)cc1 , what is it?
-17.1

And then Cc1cccn2c(=O)c3cc(C(=O)NCc4ccco4)c(=N)n(C(C)C)c3nc12 , what is it?
-77.6

And then Cc1cc(Cl)c(OCCCSc2nc(C)cc(=O)[nH]2)c(Br)c1 , what is it?
-10.3

And then CCCCN(CC)CCCNC(=O)c1cc2cc3ccc(C)cc3nc2o1 , what is it?
-53.4

And then O=C(NC1CC2CCCC(C1)N2Cc1ccccc1)C1CCCCC1 (centres unmarked) , what is it?
-25.2

And then COCCNC(=O)c1cc2cc3ccc(OC)cc3nc2o1 , what is it?
12.8

And then Cc1ccccc1C(=O)NNC(=O)Nc1ccccc1 , what is it?
11.6

And then O=C(COc1ccccc1)Nc1cccc(-c2nc3cc4ccccc4cc3[nH]2)c1 , what is it?
-9.82

And then O=C(O)CCCC(=O)Nc1cccc(-c2nc3ccccc3[nH]2)c1 , what is it?
34.1

And then O=C(O)c1cccc(S(=O)(=O)N2CCCC(c3nc4c(nnn4Cc4ccc(F)cc4)c(=O)[nH]3)C2)c1 (centres unmarked) , what is it?
-15.3
